Where do these numbers come from? They come from ChEMBL document CHEMBL5321270.

assay: Cmax in ICR mouse at 2 mg/kg,iv measured upto 24 hrs by LC-MS/MS analysis; assay type: ADME, organism-based; parameters: dose 2 mg/kg, time < 24 hrs, route iv; conditions: in vivo
Measured Metric: Cmax (ng/mL)
Expressed in ng/mL, but write only the number.

Data request, read-out Cmax, for Nc1cc(=O)n(C(=S)Nc2ccc3c(c2)CCC3)[nH]1
1520

* * *

experiment: Clearance in ICR mouse at 2 mg/kg,iv measured upto 24 hrs by LC-MS/MS analysis; assay type: ADME, organism-based; settings: in vivo
Measured Metric: clearance (mL/min/kg)
Give a bare numeral; the unit mL/min/kg is implied.

Which measured clearance value corresponds to Nc1cc(=O)n(C(=S)Nc2ccc3c(c2)CCC3)[nH]1 ?
68.6

* * *

assay: Half life in ICR mouse at 2 mg/kg,iv measured upto 24 hrs by LC-MS/MS analysis; format: ADME, organism-based; details: in vivo
Measured Metric: half-life (min)
Express it in min; write the number only.

Bench note: what half-life did Nc1cc(=O)n(C(=S)Nc2ccc3c(c2)CCC3)[nH]1 show?
51.6

* * *

assay: Tmax in ICR mouse at 10 mg/kg,po measured upto 24 hrs by LC-MS/MS analysis; format: ADME, organism-based; conditions: in vivo
Measured Metric: Tmax (min)
Record the value in min, omitting the unit from your answer.

Param item = Nc1cc(=O)n(C(=S)Nc2ccc3c(c2)CCC3)[nH]1 ; retrieve measured Tmax.
15

* * *

experiment: Cytotoxicity against human HUVEC cells incubated for 48 hrs by CCK-8 assay; type: toxicity, cell-based
Measured Metric: IC50 at 48 h

For the molecule Nc1cc(=O)n(C(=S)Nc2ccc3c(c2)CCC3)[nH]1 , what IC50 at 48 h is on record?
> 83 µM

* * *

assay: Binding affinity to Candida glabrata KIX domain assessed as dissociation constant; design: species or system Nakaseomyces glabratus
Measured Metric: Kd (µM)
Report the value in µM with no unit label.

Could you tell me which Kd is on file for N#CCC(=O)NNC(=S)Nc1ccc(Cl)c(Cl)c1 ?
2.8

* * *

test: Tmax in ICR mouse at 2 mg/kg,iv measured upto 24 hrs by LC-MS/MS analysis; format: ADME, organism-based; details: in vivo
Measured Metric: Tmax (min)
Output spec: scalar in min, unitless text.

// returns reported Tmax for input Nc1cc(=O)n(C(=S)Nc2ccc3c(c2)CCC3)[nH]1
4.8

* * *

experiment: AUC (0-t) in ICR mouse at 10 mg/kg,po measured upto 24 hrs by LC-MS/MS analysis; assay type: ADME, organism-based; design: time < 24 hrs, dose 10 mg/kg, route po; settings: in vivo
Measured Metric: AUC(0-t) at 24 h
Reply with the number, then its unit.

Query (compound): Nc1cc(=O)n(C(=S)Nc2ccc3c(c2)CCC3)[nH]1 ; field requested: AUC(0-t) at 24 h
389 ng·h/mL

* * *

Record form. Attribute: Ki. Fill in for each entry.
experiment: Inhibition of fluorescent probe FITC tagged PDR1-KIX domain (unknown origin) protein-protein interaction assessed as inhibition constant incubated for 2 hrs by fluorescence polarization binding assay
Write the number in µM without appending the unit.

Bench note: what Ki did Nc1cc(=O)n(C(=S)Nc2ccc(Cl)cc2)[nH]1 show?
54.5

Same lookup for N#CCC(=O)NNC(=O)Nc1cccc(Cl)c1 , please.
119

Nc1cc(=O)n(C(=S)Nc2ccc(Cl)cc2Cl)[nH]1 , same question.
84.7

What do you have for N#CCC(=O)NNC(=S)Nc1ccc(I)cc1 ?
153

Repeat with Nc1cc(=O)n(C(=S)Nc2ccc3c(c2)CCC3)[nH]1
11.7

// same read-out, input: N#CCC(=O)NNC(=S)Nc1ccc2[nH]ccc2c1
470

Then N#CCC(=O)NNC(=S)Nc1cccc(Cl)c1Cl ?
37.1

Could you do the same for Nc1cc(=O)n(C(=S)Nc2ccc(I)cc2)[nH]1 , please?
137

Next: N#CCC(=O)NNC(=S)Nc1ccc(Cl)nc1
54.9

Similarly, N#CCC(=O)NNC(=S)Nc1ccc(Cl)c(Cl)c1 ?
29.2

What do we get for Nc1cc(=O)n(C(=S)Nc2cccc(Cl)c2Cl)[nH]1 ?
27.2

Also Nc1cc(=O)n(C(=S)Nc2ccc(Cl)nc2)[nH]1 , if possible.
144

// same read-out, input: Nc1cc(=O)n(C(=S)Nc2ccccc2Cl)[nH]1
85.8

Then what about the compound Nc1cc(=O)n(C(=S)Nc2ccc(Cl)c(Cl)c2)[nH]1 ?
109

Subsequent entry: Cc1ccc(NC(=S)NNC(=O)CC#N)cc1
476

Check N#CCC(=O)NNC(=S)Nc1ccc(Cl)cc1 too.
139

Further, for N#CCC(=O)NNC(=S)Nc1ccc(N2CCOCC2)cc1 ?
622

Now try N#CCC(=O)NNC(=S)Nc1ccccc1Cl .
175

Same thing, different compound: COc1ccc(NC(=S)NNC(=O)CC#N)cc1
348

Entry N#CCC(=O)NNC(=O)Nc1ccc(Cl)cc1 please
275

# repeat for N#CCC(=O)NNC(=S)Nc1ccc2c(c1)CCC2
256

Moving on to N#CCC(=O)NNC(=S)Nc1ccc(Cl)cc1Cl
37.3

* * *

test: Volume of distribution at steady state in ICR mouse at 2 mg/kg,iv measured upto 24 hrs by LC-MS/MS analysis; type: ADME, organism-based; details: in vivo, read-out: Vdss
Measured Metric: Vd (L/kg)
Answer in L/kg, number only, no unit symbol.

Which Vd is reported for this molecule? Nc1cc(=O)n(C(=S)Nc2ccc3c(c2)CCC3)[nH]1
1.04

* * *

assay: Cmax in ICR mouse at 10 mg/kg,po measured upto 24 hrs by LC-MS/MS analysis; format: ADME, organism-based; design: dose 10 mg/kg, time < 24 hrs, route po; conditions: in vivo
Measured Metric: Cmax

Record request: Cmax value, item Nc1cc(=O)n(C(=S)Nc2ccc3c(c2)CCC3)[nH]1
875 ng/mL

* * *

test: AUC (0-t) in ICR mouse at 2 mg/kg,iv measured upto 24 hrs by LC-MS/MS analysis; format: ADME, organism-based; set-up: time < 24 hrs, dose 2 mg/kg, route iv; conditions: in vivo
Measured Metric: AUC(0-t) at 24 h (ng·h/mL)
Express the result in ng·h/mL but write the number alone.

For the molecule shown here, Nc1cc(=O)n(C(=S)Nc2ccc3c(c2)CCC3)[nH]1 , give the reported AUC(0-t) at 24 h.
489
